# method-description: Bioavailability by oral administration in mice (urinary excretion)
# Type: in vivo
# conditions: mouse, urine, 20 mg/kg, CMC-Na suspension, 6 hours
endpoint-name: bioavailability at 6 h (%)
Provide the reading as a plain figure in %.

Use these answered entries as a reference point.
CC(C)OC(=O)OC(C)OC(=O)C1=C(COC(=O)N(C)C)CSC2C(NC(=O)/C(=N\O)c3csc(N)n3)C(=O)N12 (stereo not drawn)
46
CC(C)OC(=O)OC(C)OC(=O)C1=C(COC(N)=O)CS[C@@H]2C(NC(=O)/C(=N\O)c3csc(N)n3)C(=O)N12 (stereo partly drawn) [Compound C, reference compound]
7
CN(C)C(=O)OCC1=C(C(=O)OCOC(=O)C(C)(C)C)N2C(=O)C(NC(=O)/C(=N\O)c3csc(N)n3)C2SC1 (stereo not drawn)
38
CO/N=C(\C(=O)NC1C(=O)N2C(C(=O)OCOC(=O)C(C)(C)C)=C(COC(N)=O)CS[C@H]12)c1csc(N)n1 (stereo partly drawn) [Compound D, reference compound]
17
CC(C)(C)C(=O)OCOC(=O)C1=C(COC(N)=O)CS[C@@H]2C(NC(=O)/C(=N\O)c3csc(N)n3)C(=O)N12 (stereo partly drawn) [Compound B, reference compound]
17

Read off the recorded bioavailability at 6 h for CO/N=C(\C(=O)NC1C(=O)N2C(C(=O)OCOC(=O)C(C)(C)C)=C(COC(=O)N(C)C)CSC12)c1csc(N)n1 (stereo not drawn)
34

---

# System: Haemophilus influenzae E35147
# method-description: Treatment of respiratory-infected mice, Haemophilus influenzae E35147
# Type: in vivo, mouse infected with Haemophilus influenzae
# conditions: mouse, oral, 40 mg/kg, 1 hour after inoculation of 4.3 × 10^5 CFU/mouse; counted 24 hours after infection; limit 1.48, no colony = 1; control 5.73 ± 0.58
endpoint-name: Intrapulmonary viable cells (Log CFU/Lung)
Provide the reading as a plain figure in Log CFU/Lung.

Use these answered entries as a reference point.
C=CC1=C(C(=O)O)N2C(=O)C(NC(=O)/C(=N\O)c3csc(N)n3)[C@H]2SC1 (stereo partly shown)
5.16
CC(C)OC(=O)OC(C)OC(=O)C1=C(COC(=O)N(C)C)CSC2C(NC(=O)/C(=N\O)c3csc(N)n3)C(=O)N12 (stereo not shown)
3.51
CC(C)OC(=O)OC(C)OC(=O)C1=C(COC(N)=O)CS[C@@H]2C(NC(=O)/C(=N\O)c3csc(N)n3)C(=O)N12 (stereo partly shown) [Compound C, reference compound]
5.50

Proceed to the following item.
Read off the recorded Intrapulmonary viable cells for CC(=O)O/N=C(\C(=O)NC1C(=O)N2C(C(=O)OC(C)OC(=O)OC(C)C)=C(COC(=O)N(C)C)CSC12)c1csc(N)n1 (stereo not shown)
4.86

---

dose excreted at 6 h values, listed per item
# method-description: Bioavailability by oral administration in mice (urinary excretion)
# Assay type: in vivo
# conditions: mouse, urine, 20 mg/kg, CMC-Na suspension, collected during 6 hours, read-out: Recovery in urea
# Protocol: Certain representative compounds according to the present invention were each suspended in a CMC-Na solution. The resulting suspension was administered orally to mice at the dosage of 20 mg/kg. Urea excreted during 6 hours after the administration was collected.
Provide the reading as a plain figure in %.

CC(C)(C)C(=O)OCOC(=O)C1=C(COC(N)=O)CS[C@@H]2C(NC(=O)/C(=N\O)c3csc(N)n3)C(=O)N12 (stereo partly drawn) [Compound B, reference compound]
11
CC(C)OC(=O)OC(C)OC(=O)C1=C(COC(=O)N(C)C)CSC2C(NC(=O)/C(=N\O)c3csc(N)n3)C(=O)N12 (stereo not drawn) [Example 20]
22
CN(C)C(=O)OCC1=C(C(=O)OCOC(=O)C(C)(C)C)N2C(=O)C(NC(=O)/C(=N\O)c3csc(N)n3)C2SC1 (stereo not drawn) [Example 14]
18.2
CO/N=C(\C(=O)NC1C(=O)N2C(C(=O)OCOC(=O)C(C)(C)C)=C(COC(=O)N(C)C)CSC12)c1csc(N)n1 (stereo not drawn) [Example 24]
20
CC(C)OC(=O)OC(C)OC(=O)C1=C(COC(N)=O)CS[C@@H]2C(NC(=O)/C(=N\O)c3csc(N)n3)C(=O)N12 (stereo partly drawn) [Compound C, reference compound]
4.5

Read off the recorded dose excreted at 6 h for CO/N=C(\C(=O)NC1C(=O)N2C(C(=O)OCOC(=O)C(C)(C)C)=C(COC(N)=O)CS[C@H]12)c1csc(N)n1 (stereo partly drawn) [Compound D, reference compound]
10.4

# credit: patent US5587473A
